protocol_summary: qHTS assay to identify small molecule agonists of the peroxisome proliferator-activated receptor delta (PPARd) signaling pathway - cell viability counter screen (AID 743211); also: % is scaled to controls: 0 for no effect and ±100 for the full control effect; nearly all actives have a fitted effect of over 55% in size
assay_conditions: PPARd-bla HEK293H viability, CellTiter-Glo luminescence, 17 h; series mostly up to 62.6 µM
Results filed as inconclusive are left out. Active and inactive are the calls of the source. Calls follow the shape of the dose curve; as a rule, active = well fitted cell-killing curve with a large enough effect in the repeat runs; inconclusive = weak or mixed curves; inactive = no such curve, though single readings can be large or run the other way.
I would appreciate it if you answered using one of these outcomes: yes = active, no = inactive

Worked examples, 5 molecules total:
[[record]]
molecule = "ClSC(Cl)(Cl)Cl"
group = "no"

[[record]]
molecule = "COc1ccc2c3c1O[C@H]1[C@H](O)CC[C@H]4[C@@H](C2)N(C)CC[C@@]341"
group = "no"

[[record]]
molecule = "CN"
group = "no"

[[record]]
molecule = "CN1C2CCC(C)(C)C1CC(OC(=O)C(O)(c1cccs1)c1cccs1)C2 (configuration not stated)"
group = "no"

[[record]]
molecule = "Brc1cccc(-c2ccccc2)c1"
group = "no"


Input: Field: outcome | Entry: CC(Cc1ccc2c(c1)OCO2)NO (configuration not stated)
Output: no

Input: # lookup: test call for CCO/N=C(\CC)C1=C(O)CC(c2c(C)cc(C)cc2C)CC1=O (configuration not stated)
Output: no

Input: // outcome(item) with item = `Cc1cccc(Cc2cnc[nH]2)c1C`
Output: no

###

protocol_summary: A CellTox Green Cytotoxicity Assay to monitor cytotoxicity in HepG2 cells - 16 hour (AID 1224876); also: % is scaled to controls: 0 for no effect and ±100 for the full control effect; nearly all actives have a fitted effect of over 45% in size
assay_conditions: CellTox Green fluorescence; series mostly up to 76.8 µM
Results filed as inconclusive are left out. The source made the active and inactive calls. The call rests on the fitted dose curve; in most records, active means well fitted activation curve with a large enough effect in the repeat runs; inconclusive means weak or mixed curves; inactive means flat fitted curve, though single readings scatter.
metric: Potency

// known answers, use as guide
[[record]]
compound = "O=C1C[C@@H]2OCC=C3CN4CC[C@]56c7ccccc7N1[C@H]5[C@H]2[C@H]3C[C@H]46"
assay_result = "inactive"

[[record]]
compound = "CC(=O)[O-].CC(=O)[O-].O.O.O.[Pb+2]"
assay_result = "inactive"

[[record]]
compound = "CCC(C)Br (stereo not given)"
assay_result = "inactive"

[[record]]
compound = "ClSC(Cl)(Cl)Cl"
assay_result = "inactive"

[[record]]
compound = "ClCBr"
assay_result = "inactive"


Input `CCN(CC)Cc1nccn1-c1ccc([N+](=O)[O-])cc1C(=O)c1ccccc1Cl` . Output Potency: inactive

Form field Potency, entry ClC1(Cl)C2(Cl)C3(Cl)C4(Cl)C(Cl)(Cl)C5(Cl)C3(Cl)C1(Cl)C5(Cl)C24Cl (stereo not given) : inactive

// Potency lookup, compound = `CC(=O)[O-].CC(=O)[O-].O.O.[Zn+2]` , result: inactive

###

experimental_system: Peroxisome proliferator-activated receptor delta (Homo sapiens)
protocol_summary: qHTS assay to identify small molecule antagonists of the peroxisome proliferator-activated receptor delta (PPARd) signaling pathway (AID 743215);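 also: cells stimulated with agonist L165041 at 300 nM final during compound exposure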
assay_conditions: HEK293H PPARd-UAS-bla, beta-lactamase FRET ratio, antagonist, 17 h; series mostly up to 62 µM
Source text: U.S. Tox21 Program National Center for Advancing Translational Sciences [NCATS] NIH Chemical Genomics Center [NCGC] U.S. Environmental Protection Agency [EPA] National Institutes of Environmental Health Sciences [NIEHS] National Toxicology Program [NTP] U.S. Food and Drug Administration [FDA] […]
Records with an inconclusive call do not appear. Active and inactive are the calls of the source. Calls come from the whole dose curve; as a rule, active = well fitted inhibition curve with a large enough effect in the signal ratio in the repeat runs (not every such curve was filed as active); inconclusive = weak or mixed curves, or effect the other way; inactive = no such curve, though single readings can be large or run the other way; the % refers to the signal ratio.
Pick one: label 1 for active, label 0 for inactive

Study these solved cases before continuing.
[[record]]
molecule = "CC(Cc1ccc2c(c1)OCO2)NO (configuration not stated)"
group = "label 0"

[[record]]
molecule = "CC(Cl)CCl (configuration not stated)"
group = "label 0"

[[record]]
molecule = "COc1ccc2[nH]cc(CCN(C(C)C)C(C)C)c2c1"
group = "label 0"

[[record]]
molecule = "CCCCCON=O"
group = "label 0"

[[record]]
molecule = "CCN1CCC2(CC1)COc1cc3c(cc12)N(C(=O)c1ccc(-c2ccc(-c4nnc(C)o4)cc2C)cc1)CC3"
group = "label 1"


Input: State the result this test recorded for `CCOP(=S)(OCC)Oc1cc(C)nc(N(CC)CC)n1` .
Output: label 0

Input: Can you look up the reported call for `c1cc[n+]2c(c1)-c1cccc[n+]1CC2` for me?
Output: label 0

Attribution: PubChem BioAssay (Tox21)
